Experimental Target: T1, human 4-1BB (h4-1BB) on transiently transfected CHO cells (human, UniProt Q07011 24-255)
T1 construct: also called TNFRSF9; CD137
Test Description: flow cytometry, CHO cells transfected with human 4-1BB, antibody at 0.1 µg/ml
Reported Endpoint: percentage of cells with FITC signal (%)
Give the value in % but do not write % after it.

Answered examples (4):
[
  {
    "Binder": "45-7E9 (antibody, V domains shown, mouse antibody purified from ascites) VH: QVQLKQSGPGLVQPSQSLSITCTVSGFSLTTYGVHWVRQPPGKGLEWLGVIWSDGNTDYNDAFISRLSITKDNSTSQVFFKMNGLQADDTAIYYCARNSITSVSFDCWGQGTTLTVSS VL: DIVMTQSQKFMSTSVGDRVSVTCKASQNVGTTVAWYQQRPGQSPKALICSASYRYSGVPDRFTGSGSGTDFTLTISNVQSEDLAEYFCQQYNSYPLTFGSGTKLEIK",
    "Unit Of Measure": "%",
    "Recorded Value": 50
  },
  {
    "Binder": "30-5F9 (antibody, V domains shown, mouse antibody purified from ascites) VH: QVQLKESGPGLVAPSQSLSITCTVSGFSLTTYDISWVRQPPGKGLEWLGVIWTGGGTNYNSSFMSRLSISKDNSKNQVFLKMNSLQVDDTAIYYCERVDYWGQGTTLTVSS VL: DVVMTQTPLSLPVSLGDQASISCRSSQSLVHSNGNTYLHWYLQKPGQSPKLLIYKVSNRFSGVPDRFSGSGSGTAFTFKISRVEAEDLGVYFCSQNTHVPWTFGGGTKLEIK",
    "Unit Of Measure": "%",
    "Recorded Value": 25.3
  },
  {
    "Binder": "56-2A6 (antibody, V domains shown, mouse antibody purified from ascites) VH: QIQLVQSGPELKKPGETVKISCKASGYTFTNYGMNWVKQAPGKGFKWMGWINTYTGEPTYADDFKGRFAFSLEISASTAYLQINNLKNEDTATYFCARRDYLGAMDYWGQGTSVTVSS VL: ENVLTQSPAIMSASPGEKVTMTCRASSSVSSSYLHWYQQKSGASPKLWIYSTSNLASGVPARFSGSGSGTSYSLTISSVEAEDAATYYCQQYSAYLYTFGGGTKLEIK",
    "Unit Of Measure": "%",
    "Recorded Value": 17.1
  },
  {
    "Binder": "16-1C4 (antibody, V domains shown, mouse antibody purified from ascites) VH: QGQMQQSGAELVKPGASVKLSCKTSGFTFSSSYINWLKQKPGQSLEWIAWIFAGTGGTYYNQKFTGKAQLTVDTSSGTAYMQFSSLTTEDSAIYYCARHSPRATLFDFWGQGTTLTVSS VL: QIVLSQSPAILSASPGEKVTMTCRASSSVNHMHWYQQRTGFSPKAWIYATSNLASGVPARFSGSGSGTSYSLTISRVEAEDAATYYCQQWSSNPYTFGGGTKLEIK",
    "Unit Of Measure": "%",
    "Recorded Value": 49.7
  }
]

Query binder follows.
Answer with reported percentage of cells with FITC signal of 45-7G9 (antibody, V domains shown, mouse antibody purified from ascites) VH: QVQLQQPGSALVRPGASVKLSCKASGYTFSNYWIHWVKQRHGQGLEWIGNIYPASDYTNYDEKFKNKGTLTVDTSSSTAYMHLSSLTSEDSAVYYCSRGYFGSLDYWGQGTSVTVSA VL: DILLTQSPAILSVNPGERVSFSCRASQPIGTGIHWYQQRTNGSPRLLIKSASESISGIPSRFSGSGSGTDFTLTINNVESDDVGDYYCQQSYSWPTTFGGGTKLKIN
25.9
